Numbers sourced from patent US20220267268A1.

- System: 5-HT2B receptor (Homo sapiens)
- Construct: host or cells: CHO-K1
- Experimental details: 5-HT2B receptor agonism, IP-1 accumulation in CHO-K1 cells without prior 5-HT stimulation
- Type: cell-based
- Details: 10 nM compound; % of IP-1 accumulation induced by 5-HT (1 uM)
For each record, write down the corresponding 5-HT2B receptor agonism (% of positive control) 10 nM.
Numeric only. Scale: %

Entry CC1CN(C(=N)N)c2ccc3ccccc3c21.Cl (centres unmarked) : reported 5-HT2B receptor agonism (% of positive control) 10 nM = ?
0

Record: CC1CN(C(=N)N)c2ccc3c(Cl)cccc3c21.Cl (centres unmarked)
5

Record: CC1CN(C(=N)N)c2ccc3c(F)cccc3c21 (centres unmarked)
4

Record: CC1CN(C(=N)N)c2ccc3cc(F)ccc3c21.Cl (centres unmarked)
2

Record: CC1CN(C(=N)N)c2ccc3c(Br)cccc3c21.Cl (centres unmarked)
−5

----------
- System: 5-HT2B receptor (Homo sapiens, UniProt P41595)
- Construct: host or cells: CHO-K1
- Sequence (P41595 whole entry): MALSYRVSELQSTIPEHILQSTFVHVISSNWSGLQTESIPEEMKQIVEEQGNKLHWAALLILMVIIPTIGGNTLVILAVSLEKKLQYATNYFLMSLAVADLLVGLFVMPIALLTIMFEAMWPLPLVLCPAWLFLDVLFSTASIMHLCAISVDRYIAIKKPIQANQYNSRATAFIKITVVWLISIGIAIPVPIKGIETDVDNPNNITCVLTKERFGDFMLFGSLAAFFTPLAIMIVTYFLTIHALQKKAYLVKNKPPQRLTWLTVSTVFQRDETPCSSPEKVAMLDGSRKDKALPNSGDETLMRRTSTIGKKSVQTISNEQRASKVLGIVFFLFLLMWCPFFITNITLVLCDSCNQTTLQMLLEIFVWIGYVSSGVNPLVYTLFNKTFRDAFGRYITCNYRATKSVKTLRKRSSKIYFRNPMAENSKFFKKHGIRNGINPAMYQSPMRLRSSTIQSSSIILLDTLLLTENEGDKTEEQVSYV
- Experimental details: 5-HT2B receptor agonism, IP-1 accumulation in CHO-K1 cells without prior 5-HT stimulation
- Type: cell-based
- Details: 100 nM compound; % of IP-1 accumulation induced by 5-HT (1 uM)
Reported metric: 5-HT2B receptor agonism (% of positive control) 100 nM

# query: 5-HT2B receptor agonism (% of positive control) 100 nM | item CC1CN(C(=N)N)c2ccc3c(Br)cccc3c21.Cl (centres unmarked) [Example 2] | system: 5-HT2B receptor (Homo sapiens, UniProt P41595)
−3%

Record: CC1CN(C(=N)N)c2ccc3cc(F)ccc3c21.Cl (centres unmarked) [Example 1]
7%

Record: CC1CN(C(=N)N)c2ccc3c(Cl)cccc3c21.Cl (centres unmarked) [Example 11]
−2%

Record: CC1CN(C(=N)N)c2ccc3c(F)cccc3c21 (centres unmarked) [Example 33]
26%

Record: CC1CN(C(=N)N)c2ccc3ccccc3c21.Cl (centres unmarked) [Example 3]
−3%

----------
- System: 5-HT2B receptor (Homo sapiens, UniProt P41595)
- Construct: host or cells: CHO-K1
- Experimental details: 5-HT2B receptor agonism, IP-1 accumulation in CHO-K1 cells without prior 5-HT stimulation
- Format: cell-based
- Details: 1 nM compound; % of IP-1 accumulation induced by 5-HT (1 uM)
Reported metric: 5-HT2B receptor agonism (% of positive control) 1 nM (%)
Numeric only. Scale: %

Entry CC1CN(C(=N)N)c2ccc3c(Cl)cccc3c21.Cl (centres unmarked) : reported 5-HT2B receptor agonism (% of positive control) 1 nM = ?
1

Record: CC1CN(C(=N)N)c2ccc3ccccc3c21.Cl (centres unmarked)
−3

Record: CC1CN(C(=N)N)c2ccc3c(F)cccc3c21 (centres unmarked)
−1

Record: CC1CN(C(=N)N)c2ccc3c(Br)cccc3c21.Cl (centres unmarked)
−3

Record: CC1CN(C(=N)N)c2ccc3cc(F)ccc3c21.Cl (centres unmarked)
−1
